procedure details: qHTS assay for small molecule antagonists of retinoid X receptor alpha signaling (AID 588546);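 also: cells stimulated with 9-cis-retinoic acid as agonist; % is scaled to controls: 0 for no effect and ±100 for the full control effect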
details: HEK293T RXRa-UAS-bla, beta-lactamase ratio, antagonist mode; measured here: W530 green channel, cytotoxicity proxy
Inconclusive results are not listed.
Each item that follows carries a reported max response.
assay readout: max response (%)

>>> df
                                   compound  measurement_unit  quantitative_readout
0               Oc1ccc(Cl)cc1Cc1cc(Cl)ccc1O                 %                 -8.06
1  O=C(NC(=O)c1c(F)cccc1F)Nc1cc(Cl)c(OC(F)(F)C(F)C(F)(F)F)cc1Cl (stereo not drawn)                 %                 -7.96
2      Cc1ccc(N=CN(C)C=Nc2ccc(C)cc2C)c(C)c1                 %                 -10.6
